Origin of measurements: patent US20100280227A1

assayedTarget: T1, mouse BR3 extracellular domain (mouse, UniProt Q9D8D0 1-64)
T1 construct: also called mBR3-ECD; mBR-ECD
T1 sequence: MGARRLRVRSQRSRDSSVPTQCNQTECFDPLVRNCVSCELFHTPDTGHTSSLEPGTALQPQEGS
protocol: phage competition ELISA
reportedEndpoint: pIC50
Please report pIC50 as the negative decimal logarithm of the molar concentration, giving only the number.

Would you please look over these solved cases?
# binder, pIC50
rows = [
    ("5 (Fab, V domains shown, also called V3-5) VH: EVQLVESGGGLVQPGGSLRLSCAASGFTISSSSIHWVRQAPGKGLEWVAWITPGHGSTDYADSVKGRFTISADTSKNTAYLQMNSLRAEDTAVYYCARRVCYNRLGVCAGGMDYWGQGTLVTVSS VL: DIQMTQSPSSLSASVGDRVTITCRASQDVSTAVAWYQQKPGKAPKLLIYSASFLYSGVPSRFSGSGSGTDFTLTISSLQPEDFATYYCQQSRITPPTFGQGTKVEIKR", 7.39),
    ("V3-46 phage clone (Fab, V domains shown, also called V3-46 WT; clone 46) VH: EVQLVESGGGLVQPGGSLRLSCAASGFTISNSSIHWVRQAPGKGLEWVAWVLPSVGFTDYADSVKGRFTISADTSKNTAYLQMNSLRAEDTAVYYCARRVCYNRLGVCAGGMDYWGQGTLVTVSS VL: DIQMTQSPSSLSASVGDRVTITCRASQDVSTAVAWYQQKPGKAPKLLIYSASFLYSGVPSRFSGSGSGTDFTLTISSLQPEDFATYYCQQSQISPPTFGQGTKVEIKR", 9.10),
]

Here is another binder to look at.
Which pIC50 value belongs to 24 (Fab, V domains shown, also called V3-24) VH: EVQLVESGGGLVQPGGSLRLSCAASGFSIRSISIHWVRQAPGKGLEWVAWITPFNGTTDYADSVKGRFTISADTSKNTAYLQMNSLRAEDTAVYYCARRVCYNRLGVCAGGMDYWGQGTLVTVSS VL: DIQMTQSPSSLSASVGDRVTITCRASQDVSTAVAWYQQKPGKAPKLLIYSASFLYSGVPSRFSGSGSGTDFTLTISSLQPEDFATYYCQQSLITPPTFGQGTKVEIKR ?
7.64
